target: SHP2-C SH2; assay: SH2 binding enrichment of the phosphorylated peptide, bacterial display (enrichment ratio); higher = better substrate or ligand; peptides without Tyr show the background;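 further: peptide library displayed on the E. coli surface as eCPX fusions, selected cells deep-sequenced, score is each peptide's frequency after selection divided by its frequency in the input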
quantity: SH2 binding enrichment
Number only, please.

entry_sequence | system_tested | SH2 binding enrichment
RQQEDYLLFKQ [RARRES1_Y159_YF] | SHP2-C SH2 | 0.838
GLDGSYLPRDS [SH2D1A_Y29_L31P] | SHP2-C SH2 | 0.483
PLYGEYFTLQI [TP53_Y327_D324Y] | SHP2-C SH2 | 0.809
CPPELYALMSD [ZAP70_Y569] | SHP2-C SH2 | 0.784
ISTAGYSIPEL [EDAR_Y406] | SHP2-C SH2 | 0.893
YPPDGYSRHYE [CTNND1_Y213] | SHP2-C SH2 | 1.04
LLVVLNKFRCF [PSEN1_Y154_Y154N_YF] | SHP2-C SH2 | 1.34
FGGRDYSLDEF [MYOF_Y1705_YF] | SHP2-C SH2 | 0.606
LLVVLYKYRCY [PSEN1_Y154] | SHP2-C SH2 | 0.87
YIPFRYPKEFQ [IDS_Y234_H229Y] | SHP2-C SH2 | 0.602

Value of SH2 binding enrichment reported for the sequence RKETFYILSCR [GUCY2C_Y681_T682I] is 0.663

Value of SH2 binding enrichment reported for the sequence EVEFEYPFRLH [SYP_Y73] is 0.899

Value of SH2 binding enrichment reported for the sequence RRGMPYGGHGD [TGM1_Y312_R315H] is 0.764

Value of SH2 binding enrichment reported for the sequence LKTNCYNNGKD [DNMT3B_Y404] is 0.694
